Target: B. subtilis RNAP (Bacillus subtilis, UniProt P37870+P37871)
Construct: endogenous in cells; host or cells: Bacillus subtilis strain PL37 (built from strain 168)
Sequence (P37871 whole entry): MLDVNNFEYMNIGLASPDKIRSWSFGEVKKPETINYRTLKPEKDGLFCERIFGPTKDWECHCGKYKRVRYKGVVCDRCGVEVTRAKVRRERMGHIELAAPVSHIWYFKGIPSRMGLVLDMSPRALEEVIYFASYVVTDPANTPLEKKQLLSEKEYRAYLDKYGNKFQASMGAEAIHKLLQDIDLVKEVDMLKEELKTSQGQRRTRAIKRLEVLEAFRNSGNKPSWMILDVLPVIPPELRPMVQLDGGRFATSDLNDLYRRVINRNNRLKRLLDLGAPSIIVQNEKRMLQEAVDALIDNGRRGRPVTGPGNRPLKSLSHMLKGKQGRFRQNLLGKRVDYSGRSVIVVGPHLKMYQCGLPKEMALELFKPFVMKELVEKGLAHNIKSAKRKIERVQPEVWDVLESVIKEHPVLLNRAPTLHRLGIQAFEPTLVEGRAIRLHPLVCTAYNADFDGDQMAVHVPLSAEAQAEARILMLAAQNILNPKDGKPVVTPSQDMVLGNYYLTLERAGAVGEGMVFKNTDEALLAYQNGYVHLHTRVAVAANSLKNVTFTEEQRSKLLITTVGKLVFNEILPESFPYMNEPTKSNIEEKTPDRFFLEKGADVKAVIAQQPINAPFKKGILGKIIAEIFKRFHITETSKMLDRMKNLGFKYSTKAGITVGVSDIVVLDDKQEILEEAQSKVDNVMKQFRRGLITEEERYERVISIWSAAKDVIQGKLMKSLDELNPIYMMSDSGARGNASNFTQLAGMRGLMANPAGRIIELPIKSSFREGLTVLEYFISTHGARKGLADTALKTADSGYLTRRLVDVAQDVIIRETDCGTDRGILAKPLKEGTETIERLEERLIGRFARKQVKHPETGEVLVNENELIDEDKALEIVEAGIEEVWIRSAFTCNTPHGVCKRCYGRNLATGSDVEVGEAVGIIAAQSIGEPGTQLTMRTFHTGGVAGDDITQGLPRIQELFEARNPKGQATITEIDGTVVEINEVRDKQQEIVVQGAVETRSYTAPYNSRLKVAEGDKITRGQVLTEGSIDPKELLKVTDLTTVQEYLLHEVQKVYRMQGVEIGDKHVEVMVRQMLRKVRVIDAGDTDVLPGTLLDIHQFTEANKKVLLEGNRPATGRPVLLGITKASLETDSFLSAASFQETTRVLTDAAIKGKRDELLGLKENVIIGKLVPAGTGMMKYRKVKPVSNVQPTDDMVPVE
Sequence (P20429 whole entry, further chain): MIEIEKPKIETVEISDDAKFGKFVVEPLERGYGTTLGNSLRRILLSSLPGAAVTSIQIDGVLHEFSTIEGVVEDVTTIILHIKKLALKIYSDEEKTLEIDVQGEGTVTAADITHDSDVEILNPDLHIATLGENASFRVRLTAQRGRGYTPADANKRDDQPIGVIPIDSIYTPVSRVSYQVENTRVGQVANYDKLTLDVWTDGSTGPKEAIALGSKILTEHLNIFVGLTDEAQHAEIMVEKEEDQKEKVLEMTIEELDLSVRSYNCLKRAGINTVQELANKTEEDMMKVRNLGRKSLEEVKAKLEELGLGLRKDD
Sequence (O35011 whole entry, further chain): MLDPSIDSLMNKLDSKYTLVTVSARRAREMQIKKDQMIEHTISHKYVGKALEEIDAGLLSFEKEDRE
Sequence (P37870 whole entry): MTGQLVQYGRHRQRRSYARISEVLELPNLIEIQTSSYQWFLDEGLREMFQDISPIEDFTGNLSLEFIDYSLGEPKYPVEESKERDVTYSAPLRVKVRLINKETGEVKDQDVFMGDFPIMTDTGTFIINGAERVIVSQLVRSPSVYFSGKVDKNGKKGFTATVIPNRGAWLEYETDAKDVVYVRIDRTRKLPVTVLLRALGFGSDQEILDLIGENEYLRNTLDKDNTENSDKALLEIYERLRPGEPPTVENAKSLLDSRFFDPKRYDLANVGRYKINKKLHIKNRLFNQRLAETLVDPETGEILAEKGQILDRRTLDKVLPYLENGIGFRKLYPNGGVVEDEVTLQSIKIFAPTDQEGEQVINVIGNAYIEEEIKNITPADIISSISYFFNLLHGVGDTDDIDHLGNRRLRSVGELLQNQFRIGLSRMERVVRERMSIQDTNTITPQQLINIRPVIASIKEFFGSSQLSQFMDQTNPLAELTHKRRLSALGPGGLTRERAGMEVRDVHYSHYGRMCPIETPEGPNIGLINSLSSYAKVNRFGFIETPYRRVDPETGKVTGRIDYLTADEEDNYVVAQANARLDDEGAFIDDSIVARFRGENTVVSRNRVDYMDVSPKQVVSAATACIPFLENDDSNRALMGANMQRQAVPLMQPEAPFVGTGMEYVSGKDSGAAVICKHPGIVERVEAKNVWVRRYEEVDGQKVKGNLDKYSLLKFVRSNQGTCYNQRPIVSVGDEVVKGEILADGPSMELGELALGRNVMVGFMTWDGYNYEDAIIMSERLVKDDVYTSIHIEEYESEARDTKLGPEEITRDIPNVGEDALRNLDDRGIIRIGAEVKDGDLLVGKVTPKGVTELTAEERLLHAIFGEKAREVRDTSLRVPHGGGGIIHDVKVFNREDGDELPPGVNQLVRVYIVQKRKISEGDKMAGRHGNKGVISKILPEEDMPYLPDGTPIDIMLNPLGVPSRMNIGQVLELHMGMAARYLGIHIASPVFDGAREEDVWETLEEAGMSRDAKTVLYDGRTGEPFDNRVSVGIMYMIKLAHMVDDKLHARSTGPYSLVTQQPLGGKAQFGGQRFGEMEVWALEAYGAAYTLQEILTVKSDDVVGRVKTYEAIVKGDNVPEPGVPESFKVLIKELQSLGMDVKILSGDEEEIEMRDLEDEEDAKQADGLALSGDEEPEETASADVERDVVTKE
Test: Dual reporter assay in strain PL37: test reporter Pxyl-lacZ and ratio of control to test reporter (RES:MUG)
Assay type: cell-based
Details: strain PL37; Dilution Number 6; DMSO control […]
Positions of bridges follow the written chain, without caps; N, C: chain ends. Non-standard residues stand in square brackets, D forms with d. Residues, ends and D or L forms follow the SMILES beside them. *: point of attachment. Ileψ(thiazoline)Cys = CC[C@H](C)[C@H](N)C1=N[C@H](C(=O)*)CS1; dOrn = NCCC[C@@H](N)C(=O)O
# Ratio of the control reporter (RES): test reporter (MUG) values compiled below
// no unit string in output, number only

For orientation, consider the following solved cases.
| COMPOUND | MEASUREMENT TARGET | OBS VALUE |
| --- | --- | --- |
| CCC[C@@H]1C[C@@H](C(=O)N[C@@H]([C@H]2O[C@H](SC)[C@H](O)[C@@H](O)[C@H]2O)[C@@H](C)O)N(C)C1 | B. subtilis RNAP (Bacillus subtilis, UniProt P37870+P37871) | 1.40 |
| CC1(C)S[C@@H]2[C@H](NC(=O)Cc3ccccc3)C(=O)N2[C@H]1C(=O)O | B. subtilis RNAP (Bacillus subtilis, UniProt P37870+P37871) | 1.80 |
| CO[C@@H]1[C@@H](OC(N)=O)[C@@H](O)[C@H](Oc2ccc3c(O)c(NC(=O)c4ccc(O)c(CC=C(C)C)c4)c(=O)oc3c2C)OC1(C)C | B. subtilis RNAP (Bacillus subtilis, UniProt P37870+P37871) | 0.81 |
| CC[C@H](C)[C@H](N)C1=N[C@H](C(=O)N[C@@H](CC(C)C)C(=O)N[C@H](CCC(=O)O)C(=O)N[C@H](C(=O)N[C@H]2CCCCNC(=O)[C@H](CC(N)=O)NC(=O)[C@@H](CC(=O)O)NC(=O)[C@H](Cc3cnc[nH]3)NC(=O)[C@@H](Cc3ccccc3)NC(=O)[C@H]([C@@H](C)CC)NC(=O)[C@@H](CCCN)NC2=O)[C@@H](C)CC)CS1 [Bacitracin] ({Ileψ(thiazoline)Cys}-L[dE]IK[dOrn]I[dF]H[dD]N; lactam 4-C) | B. subtilis RNAP (Bacillus subtilis, UniProt P37870+P37871) | 1.13 |
| CC1=C(C(=O)O)N2C(=O)[C@@H](NC(=O)[C@H](N)c3ccccc3)[C@H]2SC1 | B. subtilis RNAP (Bacillus subtilis, UniProt P37870+P37871) | 1.81 |

**Query** What measured Ratio of the control reporter (RES): test reporter (MUG) goes with `O=C(N[C@H](CO)[C@H](O)c1ccc([N+](=O)[O-])cc1)C(Cl)Cl` ?
**Result** 1.51

**Query** What measured Ratio of the control reporter (RES): test reporter (MUG) goes with `CN[C@@H]1[C@H](O)[C@H](NC)[C@H]2O[C@@]3(O)C(=O)C[C@@H](C)O[C@H]3O[C@@H]2[C@H]1O` ?
**Result** 1.14

**Query** What measured Ratio of the control reporter (RES): test reporter (MUG) goes with `CNC(=O)[C@@H](C)[C@H]1C(=O)/C(=C(O)/C=C/C(C)=C/[C@@H](C)[C@H]2O[C@@]3(C)O[C@H](C=C[C@@]34CO4)[C@@H]2C)C(=O)N1[C@@H]1CC[C@H](O)[C@H](C)O1` ?
**Result** 2.53

**Query** What measured Ratio of the control reporter (RES): test reporter (MUG) goes with `CCn1cc(C(=O)O)c(=O)c2ccc(C)nc21` ?
**Result** 0.91

**Query** What measured Ratio of the control reporter (RES): test reporter (MUG) goes with `CC[C@H]1OC(=O)[C@H](C)[C@@H](O[C@H]2C[C@@](C)(OC)[C@@H](O)[C@H](C)O2)[C@H](C)[C@@H](O[C@@H]2O[C@H](C)C[C@H](N(C)C)[C@H]2O)[C@](C)(O)C[C@@H](C)C(=O)[C@H](C)[C@@H](O)[C@]1(C)O` ?
**Result** 1.72

**Query** What measured Ratio of the control reporter (RES): test reporter (MUG) goes with `CCn1cc(C(=O)O)c(=O)c2cc3c(cc21)OCO3` ?
**Result** 1.86
